system: Human alphaherpesvirus 1; assay: In vitro antiviral activity in secondary cultures of rabbit kidney cells infected with HSV type 1 strain 377; type: functional
Checkbox rule: Virus rating lower than 4 = class 1; Virus rating not lower than 4 = class 0.

Solved cases below.
Nc1nc(N)c2ncn(C3CC(O)C(CO)C3)c2n1 (stereo unspecified) : class 0
Nc1nc(Cl)c2ncn(C3CC(O)C(CO)C3)c2n1 (stereo unspecified) : class 1
Cc1cn(C2CC(CO)C(O)C2O)c(=O)[nH]c1=O (stereo unspecified) : class 0
Nc1nc(O)c2nnn(C3CC(O)C(CO)C3)c2n1 (stereo unspecified) : class 0

As a next step, examine the molecule that follows.
Virus rating strictly < 4 for this molecule? Nc1nc(S)c2ncn(C3CC(O)C(CO)C3)c2n1 (stereo unspecified)
class 0

---

Please provide measured Weight change for the entries that follow.
system: L1210; test: Antineoplastic activity of compound in mice inoculated with 10e 5 L1210 leukemia cells was measured as weight change after ip administration of 100 […]; format: functional, Mus musculus
Give bare numbers, in g.

Before answering, review these 4 worked examples.
Nc1nc(O)c2ncn([C@@H]3C[C@H](CO)[C@@H](O)C3)c2n1 : -3.7
Nc1nc(Cl)c2ncn(C3CC(O)C(CO)C3)c2n1 (stereo not given) : -1
Nc1nc(O)c2nnn(C3CC(O)C(CO)C3)c2n1 (stereo not given) : -2.4
Nc1nc(Cl)c2nnn(C3CC(O)C(CO)C3)c2n1 (stereo not given) : -3.4

Could you now consider this next molecule?
Fill in Weight change for record Nc1nc(S)c2ncn(C3CC(O)C(CO)C3)c2n1 (stereo not given)
-0.2
